Target: human EHMT2 913-1193 (Homo sapiens, UniProt Q96KQ7)
Sequence (Q96KQ7 913-1193): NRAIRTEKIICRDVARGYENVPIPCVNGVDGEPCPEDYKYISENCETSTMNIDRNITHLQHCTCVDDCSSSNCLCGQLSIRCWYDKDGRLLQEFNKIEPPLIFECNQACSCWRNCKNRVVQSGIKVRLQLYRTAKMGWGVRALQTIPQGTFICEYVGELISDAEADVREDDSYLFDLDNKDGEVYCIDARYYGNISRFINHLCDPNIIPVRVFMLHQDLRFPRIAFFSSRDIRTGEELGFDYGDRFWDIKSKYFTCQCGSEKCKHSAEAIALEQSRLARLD
Assay: EHMT2 enzyme assay on histone peptide substrate (3H-SAM SPA)
Details: EHMT2 IC50, recombinant human EHMT2 913-1193, histone peptide substrate
assay readout: IC50

Record excerpt, results attached:
Given Cc1cc(NCC2CCOCC2)nc(Nc2cc3c(c(C4=CCNCCC4)c2)OCC3)n1 [Compound 308] , state its recorded IC50.
< 100 nM

Consider the compound shown here: [2H]C([2H])([2H])N1CC=C(c2cc(Nc3nc(C)cc(NC)n3)cc3c2OCC3)CCC1 [Compound 274] What is its recorded IC50?
< 100 nM

Using the record for [2H]C([2H])([2H])CNc1cc(C)nc(Nc2cc3c(c(C4=CCNCCC4)c2)OCCO3)n1 [Compound 285] , report its IC50.
100 to 500 nM

Look at this compound and give its reported IC50. [2H]C([2H])([2H])CNc1nc(Nc2cc3c(c(C4=CCNCCC4)c2F)OCC3)nc(C)c1F [Compound 258]
100 to 500 nM

// each listed compound needs a value for IC50
1. CNc1cc(C)nc(Nc2cc3c(c(C4=CCNCC(F)C4)c2F)OCC3)n1 (single isomer, unassigned) [Compound 167]
2. CNc1cc(C)nc(Nc2cc3c(c(C4CCNCC4)c2)OCC3)n1 [Compound 149]
3. CCNc1cc(C)nc(Nc2cc3c(c(C4=CCN(C)CCC4)c2)OCC3)n1 [Compound 321]

< 100 nM
> 2000 nM
100 to 500 nM

// batch mode: one IC50 value per listed entry
1. CNc1cc(C)nc(Nc2cc3c(c(C4=CCNC(C)CC4)c2F)OCCC3)n1 (single isomer, unassigned) [Compound 164]
2. CNc1cc(C)nc(Nc2cc3c(c(C4=CCNC(C)CC4)c2Cl)OCO3)n1 (single isomer, unassigned) [Compound 356]
3. [2H]Cc1nc(Nc2cc3c(c(C4=CCNCCC4)c2)OCO3)nc(NCC([2H])([2H])[2H])c1F [Compound 233]

1: < 100 nM; 2: < 100 nM; 3: 500 to 2000 nM

Provide IC50 for all items below, preserving their order.
1. CNc1cc(C2CC2)nc(Nc2cc3c(c(C4=CCNCCC4)c2)OCC3)n1 [Compound 317]
2. CNc1cc(C)nc(Nc2cc3c(c(C4=CCNCCC4)c2)COC3)n1 [Compound 311]
3. CNc1cc(C)nc(Nc2ccc(OC)c(C3=CCNCCC3)c2)n1 [Reference Compound B, reference compound]
4. [2H]C([2H])([2H])CNc1cc(C)nc(Nc2cc3c(c(C4=CCNCCC4)c2)OCC3)n1 [Compound 300]
5. CNc1cc(C)nc(Nc2cc3c(c(C4CCCN(C)CC4)c2)OCC3)n1 (centres unmarked) [Compound 107]

["100 to 500 nM", "500 to 2000 nM", "< 100 nM", "< 100 nM", "500 to 2000 nM"]

Hi! Can you tell me IC50 for each of these compounds?
1. CNc1nc(Nc2cc3c(c(C4=CCNCCC4)c2F)OCC3)nc(C)c1C [Compound 223]
2. CNc1nc(Nc2cc3c(c(C4=CCNCCC4)c2)OCC3)nc(C)c1Cl [Compound 284]
3. CNc1cc(C)nc(Nc2cc3c(c(C4=CCNCC4)c2)OCCC3)n1 [Compound 345]

1: < 100 nM; 2: 500 to 2000 nM; 3: 500 to 2000 nM

Answer for every listed entry: what is its IC50? The entries follow.
1. CNc1cc(C)nc(Nc2cc3c(c(C4=CCNC[C@H](O)C4)c2F)OC[C@@H]3C)n1 (stereo in doubt) [Compound 401]
2. CNc1cc(Nc2cc3c(c(C4=CCNCCC4)c2F)OCC3)nc(C)c1F [Compound 257]
3. CCc1c(C)nc(Nc2cc3c(c(C4=CCNCCC4)c2F)OCC3)nc1NC [Compound 212]

100 to 500 nM
< 100 nM
< 100 nM

I would be grateful if you could provide IC50 for each of the following entries.
1. Cc1cc(NC2COC2)cc(Nc2cc3c(c(C4=CCNCCC4)c2)OCC3)n1 [Compound 313]
2. [2H]C([2H])([2H])Nc1cc(C)nc(Nc2cc3c(c(C4=CCNCCC4)c2)OCC3)n1 [Compound 306]
3. Cc1cc(NC2CCC2)nc(Nc2cc3c(c(OCCCN4CCCC4)c2)OCC3)n1 [Compound 119]
4. CNc1cc(C)nc(Nc2cc3c(c(C4=CCNC(C)CC4)c2Cl)OCC3)n1 (single isomer, unassigned) [Compound 374]
5. CNc1nc(Nc2cc3c(c(C4=CCNCCC4)c2F)OCC3)nc(C)c1Cl [Compound 224]
6. Cc1cc(NC2CCCC2)nc(Nc2cc3c(c(OCCCN4CCCC4)c2)OCC3)n1 [Compound 116]
7. CNc1cc(Nc2cc3c(c(C4=CCN(C)CCC4)c2F)OCO3)nc(C)c1F [Compound 208]
8. [2H]C([2H])([2H])CNc1cc(C)nc(Nc2cc3c(c(C4=CCN(C)CCC4)c2)OCCO3)n1 [Compound 272]

100 to 500 nM
< 100 nM
> 2000 nM
< 100 nM
< 100 nM
> 2000 nM
100 to 500 nM
500 to 2000 nM

Data provenance is patent US20240368139A1.
